target: GABA-A receptor; alpha-3/beta-3/gamma-2 (Homo sapiens, UniProt P18507+P28472+P34903); assay: Binding affinity at human recombinant gamma-aminobutyric-acid A receptor alpha-3-beta-3-gamma-2 expressed in L(tk) cells by [3H]Ro-151788 displacement.
Sequence (P18507 whole entry): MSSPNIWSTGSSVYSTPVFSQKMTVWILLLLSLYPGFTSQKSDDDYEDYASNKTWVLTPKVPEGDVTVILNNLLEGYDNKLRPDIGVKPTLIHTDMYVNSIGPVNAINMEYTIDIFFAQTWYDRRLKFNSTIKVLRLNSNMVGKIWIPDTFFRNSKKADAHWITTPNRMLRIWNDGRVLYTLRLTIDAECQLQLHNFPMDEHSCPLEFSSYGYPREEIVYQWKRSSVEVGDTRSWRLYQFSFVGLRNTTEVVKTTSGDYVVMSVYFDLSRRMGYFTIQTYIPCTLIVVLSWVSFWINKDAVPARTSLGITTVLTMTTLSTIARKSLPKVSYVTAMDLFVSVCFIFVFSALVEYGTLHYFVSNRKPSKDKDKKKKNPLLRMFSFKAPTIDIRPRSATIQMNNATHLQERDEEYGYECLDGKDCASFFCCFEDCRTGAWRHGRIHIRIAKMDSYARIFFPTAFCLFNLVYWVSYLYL
Sequence (P28472 whole entry): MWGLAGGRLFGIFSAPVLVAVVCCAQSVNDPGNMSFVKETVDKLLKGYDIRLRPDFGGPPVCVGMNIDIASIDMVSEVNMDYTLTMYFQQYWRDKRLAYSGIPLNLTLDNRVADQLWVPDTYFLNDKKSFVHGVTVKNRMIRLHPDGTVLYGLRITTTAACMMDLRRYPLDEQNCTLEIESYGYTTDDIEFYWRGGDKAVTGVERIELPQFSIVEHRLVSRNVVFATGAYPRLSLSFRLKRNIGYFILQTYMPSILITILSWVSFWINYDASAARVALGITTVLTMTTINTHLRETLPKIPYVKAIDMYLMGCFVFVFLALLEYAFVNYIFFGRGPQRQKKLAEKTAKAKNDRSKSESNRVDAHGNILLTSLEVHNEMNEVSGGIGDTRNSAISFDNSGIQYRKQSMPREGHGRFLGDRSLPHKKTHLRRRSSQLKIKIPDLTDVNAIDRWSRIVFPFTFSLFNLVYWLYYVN
Sequence (P34903 whole entry): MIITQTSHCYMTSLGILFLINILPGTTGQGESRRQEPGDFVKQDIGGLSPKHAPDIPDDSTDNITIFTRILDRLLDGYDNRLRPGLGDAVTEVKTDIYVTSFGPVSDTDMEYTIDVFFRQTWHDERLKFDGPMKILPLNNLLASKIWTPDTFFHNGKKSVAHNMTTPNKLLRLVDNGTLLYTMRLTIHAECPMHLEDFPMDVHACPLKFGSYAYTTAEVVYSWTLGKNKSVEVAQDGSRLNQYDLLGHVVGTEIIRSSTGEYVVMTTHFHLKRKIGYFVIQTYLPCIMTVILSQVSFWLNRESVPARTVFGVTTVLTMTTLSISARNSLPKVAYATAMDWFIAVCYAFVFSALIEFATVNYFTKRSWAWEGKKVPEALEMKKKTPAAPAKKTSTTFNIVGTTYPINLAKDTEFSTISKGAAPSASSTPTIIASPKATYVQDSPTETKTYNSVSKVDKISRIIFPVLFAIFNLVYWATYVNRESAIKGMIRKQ
Measurement Name: Ki (nM)
Kindly answer with a numeric value in nM, unit omitted.

// known answers, use as guide
Cc1csc(-c2cc(-c3cccn3C)c3n(c2=O)CCCc2ccncc2-3)n1 = 3
Cc1csc(-c2cc(-c3nccn3C)c3n(c2=O)CCCc2ccncc2-3)n1 = 16.8

For the molecule shown here, `Cc1csc(-c2cc(-c3ccccc3F)c3n(c2=O)CCCc2ccncc2-3)n1` , give the reported Ki. 3
